Target: T1, SARS-COV-2 RBD (SARS-COV-2, UniProt P0DTC2 319-539)
T1 construct: also called WT RBD
Experiment: ELISA, RBD coated
parameter_measured: EC50 (ng/mL)

{"binder": "C990 (antibody, V domains shown, IgG; V domains only) VH: EVQLVESGGGLVRPGGSLRLSCAASGFTVGSNFMSWVRQAPGKGLEWVSLIYSGGGTHYAESVKGRFTISRDKSKNTLYLQMNSLRAEDTAVYYCANQGYYYYMDVWGKGTTVTVS VL: QSALTQPASVSGSPGQSITISCTGTSSDVGAYNYVSWHQHHPGKAPKLIIYDVSNRPSGVSNRFSGSKSGNTASLTISGLQAEDEADYYCTSYTNTTTPWVFGGGTKLTVL", "value_observed": 1.92}
{"binder": "C1027 (antibody, V domains shown, IgG; V domains only) VH: EVQLVESGGGLVQPGGSLRLSCAASGFIVTTNYMSWVRQAPGKGLEWVSLIYPGGSTFYADSVEGRFTISRDNSKNTLYLQVNSLRVEDTAVYYCARDTFGRGDDHWGQGTLVTVSS VL: DIQMTQSPSSLSASVGDRVTITCQASQDINIYLNWYQQRPGKAPKLLIYDASNLQTGVPSRFSGSGSGTDFTITISSLQPEDIATYYCQQYDNLPRSFGQGTKLEI", "value_observed": 2.42}
